- MEASUREMENT TARGET: SARS-CoV-2 RBD (SARS-CoV-2, UniProt P0DTC2 319-541)
- ASSAY NOTES: SPR
ASSAY READOUT: Kd (nM)

1. BD-515 (antibody, V domains shown) VH: EVQLVESGGGLVQPGGSLRLSCAASEFIVSRNYMSWVRQAPGKGLEWVSVIYSGGSTFYADSVKGRFTISRDNSKNTLYLQMNSLRAEDTGVYYCARDRGLVSDYWGQGTLVTVSS VL: DIQMTQSPSSLSASVGDRVTITCQASQDINKYLNWYQQKPGKAPKLLIFDASHLETGVPSRFSASGSGTDFTFTISSLQPEDIATYYCHQYDNLPRTFGQGTRLEIK
0.561
2. BD-623 (antibody, V domains shown) VH: EVQLVESGGGLVQPGGSLRLSCAASGFTVSSNYMSWVRQAPGKGLEWVSIIYSGGSTYYADSVKGRFTISRDNSKNTLYLQMNSLRAEDTAVYYCARDYAGRVWGQGTLVTVSS VL: QSALTQPASVSGSPGQSITISCTGTSSDVGSYNLVSWYQQRPGKAPKLILYEVTKRPSGVSNRFSGSKSGNTASLAISGLQAEDEADYYCCSYAGSSTWVFGGGTKLTVL
0.12
3. BD-508 (antibody, V domains shown) VH: EVQLVESGGGLVQPGGSLRLSCAASGFIVSSNYMTWVRQAPGKGLEWVSVIYSGGSTFYADSVKGRFTISRHNSKNTLFLQMNSLRAEDTAVYYCARDAQNYGMDVWGQGTTVTVSS VL: DIQMTQSPSSLSASVGDRVTITCRASQSISSYLNWYQQKPGKAPKLLIFAASSLQTGAPSRFSGSGSGTDFTLTISSLQPEDFATYYCQQSYSTPPYTFGQGTKLEIK
1.3
4. BD-604 (antibody, V domains shown) VH: EVQLVESGGGLIQPGGSLRLSCAASGIIVSSNYMTWVRQAPGKGLEWVSVIYSGGSTFYADSVKGRFTISRDNSKNTLYLQMSSLRAEDTAVYYCARDLGPYGMDVWGQGTTVTVSS VL: DIQLTQSPSFLSASVGDRVTITCRASQGISSDLAWYQQKPGKAPNLLIYAASTLQSGVPSRFSGSGSGTEFTLTISSLQPEDFATYYCQQLNSDLYTFGQGTKLEIK
0.012
